Source listed as ChEMBL document CHEMBL1146292.

# Method: Drug level in mouse brain at 10 mg/kg, ip after 1 hr
# Assay type: ADME, organism-based
# Set-up: dose 10 mg/kg, route intraperitoneal
# Protocol Conditions: read-out: Drug uptake
Examples of compounds with documented concentration at 1 h follow.
# output: bare number, implied unit µM

{"Compound": "COc1ccc(C2CN(C)Cc3cc(OCCCN4CCC(F)CC4)ccc32)cc1 (configuration not stated)", "Parameter": "concentration at 1 h", "Unit Abbrev": "µM", "Result": 6.1}

We next turn to a different compound, shown below.
Quick note, concentration at 1 h for COc1ccc(C2CN(C)Cc3cc(OCCCN4CCOCC4)ccc32)cc1 (configuration not stated) landed at 12.5

----------
Measured Ki, listed per entry for reference.
# Experimental Target: Sodium-dependent serotonin transporter (Rattus norvegicus)
# Sequence (P31652 whole entry): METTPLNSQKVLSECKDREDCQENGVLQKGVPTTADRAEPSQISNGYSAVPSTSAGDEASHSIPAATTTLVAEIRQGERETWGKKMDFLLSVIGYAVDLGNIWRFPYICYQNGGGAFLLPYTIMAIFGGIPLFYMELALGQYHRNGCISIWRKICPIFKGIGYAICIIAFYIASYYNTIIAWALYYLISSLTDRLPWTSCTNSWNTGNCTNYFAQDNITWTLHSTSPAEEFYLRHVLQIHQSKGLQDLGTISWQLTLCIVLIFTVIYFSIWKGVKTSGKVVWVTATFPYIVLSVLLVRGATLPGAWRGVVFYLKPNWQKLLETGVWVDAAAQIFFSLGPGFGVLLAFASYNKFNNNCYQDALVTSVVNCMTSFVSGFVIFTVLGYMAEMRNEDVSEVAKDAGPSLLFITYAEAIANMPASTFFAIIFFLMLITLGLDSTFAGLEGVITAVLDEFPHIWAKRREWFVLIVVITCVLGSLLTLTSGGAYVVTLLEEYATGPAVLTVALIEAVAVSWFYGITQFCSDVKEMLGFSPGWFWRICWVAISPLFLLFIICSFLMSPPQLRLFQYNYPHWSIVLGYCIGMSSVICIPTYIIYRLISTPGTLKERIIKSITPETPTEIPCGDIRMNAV
Enter your answer as a number in nM; do not include the unit.

{"Molecule": "COc1ccc(C2CN(C)Cc3cc(OCCCN4CCS(=O)(=O)CC4)ccc32)cc1 (stereo not drawn)", "Ki (nM)": 6.3}
{"Molecule": "COc1ccc(C2CN(C)Cc3cc(OCCCN4CCC(F)(F)C4)ccc32)cc1 (stereo not drawn)", "Ki (nM)": 8}

// recorded Ki for COc1ccc(C2CN(C)Cc3cc(OCCCN4CCN(C(=O)C(C)C)CC4)ccc32)cc1 (stereo not drawn) : 15

Per the records, this molecule ( COc1ccc(C2CN(C)Cc3cc(OCCCN4CCCC(F)(F)C4)ccc32)cc1 (stereo not drawn) ) has Ki equal to 10

Entry COc1ccc(C2CN(C)Cc3cc(OCCCN4CCC(O)CC4)ccc32)cc1 (stereo not drawn) — recorded Ki = 1.2

The recorded Ki for CCNCCCOc1ccc2c(c1)CN(C)CC2c1ccc(OC)cc1 (stereo not drawn) is 0.73

Recorded Ki (molecule CCN1CCN(CCCOc2ccc3c(c2)CN(C)CC3c2ccc(OC)cc2)CC1 (stereo not drawn) ): 1.5

Notebook: COc1ccc(C2CN(C)Cc3cc(OCCCN4CCN(c5ccc(C#N)cc5)CC4)ccc32)cc1 (stereo not drawn) , Ki read as 3.3

molecule COc1ccc(C2CN(C)Cc3cc(OCCCN4CCN(C5CC5)CC4)ccc32)cc1 (stereo not drawn) , Ki observed: 10

According to the records, this molecule COc1ccc(C2CN(C)Cc3cc(OCCCN(C4CC4)C4CC4)ccc32)cc1 (stereo not drawn) displays Ki of 7.6

Recorded result, COc1ccc(C2CN(C)Cc3cc(OCCCN4CCN(C(=O)c5ccncc5)CC4)ccc32)cc1 (stereo not drawn) , Ki: 21

The measured Ki associated with COc1ccc(C2CN(C)Cc3cc(OCCCN4CCC(C#N)CC4)ccc32)cc1 (stereo not drawn) reads 5.3

Ki reading for COc1ccc(C2CN(C)Cc3cc(OCCCN4CCN(c5ccccc5O)CC4)ccc32)cc1 (stereo not drawn) : 5.7

----------
# Experimental Target: Sodium-dependent serotonin transporter (Homo sapiens, UniProt P31645)
# Sequence (P31645 whole entry): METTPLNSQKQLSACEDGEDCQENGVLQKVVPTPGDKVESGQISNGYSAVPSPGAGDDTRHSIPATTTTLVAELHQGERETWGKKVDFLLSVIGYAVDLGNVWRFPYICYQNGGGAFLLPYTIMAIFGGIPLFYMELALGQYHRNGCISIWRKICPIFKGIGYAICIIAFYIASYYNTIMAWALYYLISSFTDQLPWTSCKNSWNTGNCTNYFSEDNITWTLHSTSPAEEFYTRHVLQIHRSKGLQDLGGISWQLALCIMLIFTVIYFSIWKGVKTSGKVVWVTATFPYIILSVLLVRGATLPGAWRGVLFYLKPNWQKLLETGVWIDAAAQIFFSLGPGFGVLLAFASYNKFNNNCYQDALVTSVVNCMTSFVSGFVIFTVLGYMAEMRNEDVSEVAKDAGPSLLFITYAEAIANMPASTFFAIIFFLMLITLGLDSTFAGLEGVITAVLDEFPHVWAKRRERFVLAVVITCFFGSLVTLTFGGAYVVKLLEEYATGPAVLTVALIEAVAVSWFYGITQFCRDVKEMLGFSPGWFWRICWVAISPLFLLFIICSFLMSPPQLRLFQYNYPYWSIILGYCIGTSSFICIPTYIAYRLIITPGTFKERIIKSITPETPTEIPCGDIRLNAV
For each record, check the reported Ki: if it is below 10 nM write 1.0, else write 0.0.

{"Compound": "COc1ccc(C2CN(C)Cc3cc(OCCCN4CCC(F)CC4)ccc32)cc1 (stereo not drawn)", "Qualitative Label": 1.0}
{"Compound": "COc1ccc(C2CN(C)Cc3cc(OCCCN4CCN(C(=O)C(C)C)CC4)ccc32)cc1 (stereo not drawn)", "Qualitative Label": 0.0}
{"Compound": "COc1ccc(C2CN(C)Cc3cc(OCCCN4CCOCC4)ccc32)cc1 (stereo not drawn)", "Qualitative Label": 1.0}
{"Compound": "COc1ccc(C2CN(C)Cc3cc(OCCCN4CC(F)(F)C4)ccc32)cc1 (stereo not drawn)", "Qualitative Label": 1.0}
{"Compound": "COc1ccc(C2CN(C)Cc3cc(OCCCN(C4CC4)C4CC4)ccc32)cc1 (stereo not drawn)", "Qualitative Label": 1.0}
{"Compound": "COc1ccc(C2CN(C)Cc3cc(OCCCN4CCC(O)CC4)ccc32)cc1 (stereo not drawn)", "Qualitative Label": 1.0}
{"Compound": "COc1ccc(C2CN(C)Cc3cc(OCCCN4CCC(C(F)(F)F)CC4)ccc32)cc1 (stereo not drawn)", "Qualitative Label": 0.0}
{"Compound": "COc1ccc(C2CN(C)Cc3cc(OCCCNC4CC4)ccc32)cc1 (stereo not drawn)", "Qualitative Label": 0.0}
{"Compound": "COc1ccc(C2CN(C)Cc3cc(OCCCN4CCN(C5CC5)CC4)ccc32)cc1 (stereo not drawn)", "Qualitative Label": 0.0}
{"Compound": "COc1ccc(C2CN(C)Cc3cc(OCCCN4CCCC(F)(F)C4)ccc32)cc1 (stereo not drawn)", "Qualitative Label": 1.0}

(Q) Given the entry COc1ccc(C2CN(C)Cc3cc(OCCCN4CCS(=O)(=O)CC4)ccc32)cc1 (stereo not drawn) , would its reported Ki be below 10 nM?
(A) 0.0

(Q) Take the compound COc1ccc(C2CN(C)Cc3cc(OCCCN4CCN(c5ccc(C(F)(F)F)cc5)CC4)ccc32)cc1 (stereo not drawn) and say whether its Ki is less than 10 nM.
(A) 0.0

(Q) Report whether reported Ki is lower than 10 nM (strictly) for COc1ccc(C2CN(C)Cc3cc(OCCCN4CCN(C(C)=O)CC4)ccc32)cc1 (stereo not drawn)
(A) 0.0
